Listed compounds paired with reported cell viability
test system: P12-Ichikawa; experiment: cell viability relative to DMSO control; higher = less cytotoxic; settings: HPLM + 10% dialyzed FBS; 48 h; 0.00234 µM
Your answer should be a plain number; it is taken to be in %.

given smiles | test system | property label | display unit | test value
CC[C@H]1OC(=O)[C@H](C)[C@@H](O[C@H]2C[C@@](C)(OC)[C@@H](O)[C@H](C)O2)[C@H](C)[C@@H](O[C@@H]2O[C@@H](C)C[C@H](N(C)C)[C@H]2O)[C@](C)(O)C[C@@H](C)C(=O)[C@H](C)[C@@H](O)[C@]1(C)O | P12-Ichikawa | cell viability | % | 88.3

Bench note: what cell viability did O=C1c2c(O)cccc2[C@H]([C@@H]2O[C@H](CO)[C@@H](O)[C@H](O)[C@H]2O)c2cc(CO)cc(O)c21 show? 95.8

Bench note: what cell viability did CCC(=O)O[C@@]1([C@@H](C)C[C@H]2[C@@H]3CCC/4=C/C(=O)/C=C\[C@]4(C)[C@@]3(F)[C@@H](O)C[C@]12C)C(=O)CCl show? 121

Bench note: what cell viability did Cc1ccc(-n2nc(C(C)(C)C)cc2NC(=O)Nc2ccc(OCCN3CCOCC3)c3ccccc23)cc1 show? 112
